# credit: PubChem BioAssay

# assayDetails: JC-1 mitochondrial signal, unstimulated myeloma cells – cell-based, JC-1 fluorescence, RPMI8226, 24 h, 100 nL compound, profiling panel (AID 1169); note: test concentration not given here
# protocolConditions: JC-1 mitochondrial potential fluorescence, higher = more signal
measurementName: z-score

compound="C=CCC(OC(C)=O)[C@@H]1[C@@H](N(Cc2cc3ccccc3o2)C(=O)c2cccc3ccccc23)c2cc(OCCCO)ccc2N1C(=O)Cc1ccc(OC)cc1 (some centres undefined)" endpointvalue=0.181
compound=O=S(=O)(NCCCO)c1ccc(Br)cc1 endpointvalue=0.514
compound=CN(C)CCCC[C@@H]1NC(=O)[C@@H]2C[C@H](C(=O)NCc3ccc(F)cc3)[C@H](c3cccc(OCCO)c3)N2C1=O endpointvalue=0.46
compound=O=C(NCc1ccccc1)[C@@H]1c2ccccc2C(=O)N(C2CCCCC2)[C@H]1c1ccc(CO)cc1 endpointvalue=0.739
